Measured values drawn from patent US7022691B2 for this set.

molecular target: L1 metallo-β-lactamase (class B) (Stenotrophomonas maltophilia); test: Inhibition of L1 metallo-β-lactamase (nitrocefin hydrolysis); type: biochemical
reported.property: IC50

CC1(C)S[C@@H]2C(CO)C(=O)N2[C@H]1C(=O)O (single isomer, unassigned) [Compound 28, reference compound] ... > 2 mM

So what's the measured IC50 for this one? CC1(C)[C@H](C(=O)O)N2C(=O)C(CO)C2S1(=O)=O (single isomer, unassigned) [Compound 15, reference compound]
> 2 mM

----------
molecular target: L1 metallo-β-lactamase (class B) (Stenotrophomonas maltophilia); assay: Inhibition of L1 metallo-β-lactamase (nitrocefin hydrolysis); format: biochemical; conditions: read-out: Inhibition IC50, L1 (Class B) (Metallo); 4 min incubation of inhibitor and enzyme (0.1 to 1 μM), substrate nitrocefin, 480 nm; error ±10%
pIC50: −log10 of the molar value.
reported.property: pIC50

API: value(readout= pIC50, system= L1 metallo-β-lactamase (class B) (Stenotrophomonas maltophilia), query= CC1(C)[C@H](C(=O)O)N2C(=O)C(CO)C2S1(=O)=O (single isomer, unassigned) [Compound 27, reference compound] )
< 2.70

----------
Target: Enterobacter cloacae P99 (class C) serine β-lactamase (Enterobacter cloacae, UniProt P05364)
Sequence (P05364 21-381): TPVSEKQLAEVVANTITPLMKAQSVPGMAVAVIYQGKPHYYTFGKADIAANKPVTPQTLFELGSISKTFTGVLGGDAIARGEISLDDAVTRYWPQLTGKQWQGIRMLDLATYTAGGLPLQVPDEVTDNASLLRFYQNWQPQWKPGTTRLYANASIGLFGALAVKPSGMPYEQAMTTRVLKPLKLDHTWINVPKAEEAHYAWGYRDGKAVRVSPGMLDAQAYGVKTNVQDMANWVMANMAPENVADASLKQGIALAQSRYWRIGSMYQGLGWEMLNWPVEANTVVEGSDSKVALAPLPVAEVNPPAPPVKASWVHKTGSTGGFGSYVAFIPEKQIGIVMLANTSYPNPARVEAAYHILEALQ
Experiment: biochemical
Details: 4 min incubation of inhibitor and enzyme (0.1 to 1 μM), substrate nitrocefin, 480 nm; error ±10%; read-out: Inhibition IC50, P99 (Class C) (Serine)
Procedure: Representative compounds of the invention were evaluated as inhibitors of two serine β-lactamases: Enterobacter cloacae P99 (class C), TEM-1 (class A), as well as two class B enzymes: the L1 metallo-β-lactamse derived from Stenotrophomonas maltophilia) and the metallo-β-lactamase derived from the Bacillus cereus microorganism. The IC50 value of each compound was determined as follows. […] Hydrolysis is monitored spectrophotometrically at 480 nm for 1 min.
reported.property: IC50 (µM)
I only need the number, in µM, no unit after it.

So what's the measured IC50 for this one? CC1(C)[C@H](C(=O)O)N2C(=O)C(CO)C2S1(=O)=O (single isomer, unassigned) [Compound 15, reference compound]
3.9

So what's the measured IC50 for this one? CC1(C)[C@H](C(=O)O)N2C(=O)C(CO)C2S1(=O)=O (single isomer, unassigned) [Compound 27, reference compound]
10

So what's the measured IC50 for this one? CC1(C)S[C@@H]2C(CS)C(=O)N2[C@H]1C(=O)[O-].[Na+] (stereo partly shown)
0.1

So what's the measured IC50 for this one? `CC1(C)S[C@@H]2[C@@H](CS)C(=O)N2[C@H]1C(=O)[O-].[Na+]`
3.75

----------
Reported IC50 values follow for various compounds
target: BC1 metallo-β-lactamase (class B) (Bacillus cereus); assay: biochemical; conditions: read-out: Inhibition IC50, BC1 (Class B) (Metallo); 4 min incubation of inhibitor and enzyme (0.1 to 1 μM), substrate nitrocefin, 480 nm; error ±10%

CC1(C)S[C@@H]2C(CO)C(=O)N2[C@H]1C(=O)O (single isomer, unassigned) [Compound 16, reference compound] ... > 2000 µM

Would you kindly look at the next entry?
So what's the measured IC50 for this one? CC1(C)[C@H](C(=O)O)N2C(=O)C(CO)C2S1(=O)=O (single isomer, unassigned) [Compound 27, reference compound]
> 2000 µM

----------
Reported IC50 values follow for various compounds
target: BC1 metallo-β-lactamase (class B) (Bacillus cereus, UniProt P04190); test: biochemical
Sequence (P04190 31-257): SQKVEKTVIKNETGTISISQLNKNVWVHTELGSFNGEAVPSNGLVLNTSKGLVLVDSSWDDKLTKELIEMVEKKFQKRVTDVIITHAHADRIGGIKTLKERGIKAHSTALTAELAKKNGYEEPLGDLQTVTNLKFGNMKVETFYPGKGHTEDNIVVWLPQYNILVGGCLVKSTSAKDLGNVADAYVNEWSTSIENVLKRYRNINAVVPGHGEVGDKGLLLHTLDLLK

So what's the measured IC50 for this one? CC1(C)[C@H](C(=O)[O-])N2C(=O)[C@@H](CS)[C@H]2S1(=O)=O.[Na+] [Compound 13]
64 µM

So what's the measured IC50 for this one? CC1(C)S[C@@H]2[C@@H](CS)C(=O)N2[C@H]1C(=O)[O-].[Na+] [Compound 21]
7.6 µM

So what's the measured IC50 for this one? CC1(C)[C@H](C(=O)[O-])N2C(=O)[C@H](CS)[C@H]2S1(=O)=O.[Na+] [Compound 25]
770 µM

----------
Reported IC50 values follow for various compounds
molecular target: BC1 metallo-β-lactamase (class B) (Bacillus cereus); assay: biochemical

// known answers, use as guide
C[C@]1(Cn2ccnn2)[C@H](C(=O)O)N2C(=O)C[C@H]2S1(=O)=O [Tazobactam] ... > 2000 µM
CC1(C)S[C@@H]2C(CS)C(=O)N2[C@H]1C(=O)[O-].[Na+] (stereo partly shown) [Compound 9] ... 12.3 µM
CC1(C)S[C@@H]2C(CO)C(=O)N2[C@H]1C(=O)O (single isomer, unassigned) [Compound 28, reference compound] ... > 2000 µM

Would you kindly look at the next entry?
API: value(readout= IC50, system= BC1 metallo-β-lactamase (class B) (Bacillus cereus), query= CC1(C)[C@H](C(=O)O)N2C(=O)C(CO)C2S1(=O)=O (single isomer, unassigned) [Compound 15, reference compound] )
> 2000 µM

----------
target: Enterobacter cloacae P99 (class C) serine β-lactamase (Enterobacter cloacae, UniProt P05364); experiment: biochemical; conditions: Inhibition IC50, P99 (Class C) (Serine), 4 min incubation of inhibitor and enzyme (0.1 to 1 μM), substrate nitrocefin, 480 nm; error ±10%
Reported IC50 values follow for various compounds
I only need the number, in µM, no unit after it.

// known answers, use as guide
CC1(C)S[C@@H]2C(CO)C(=O)N2[C@H]1C(=O)O (single isomer, unassigned) [Compound 16, reference compound] ... 409
CC1(C)[C@H](C(=O)[O-])N2C(=O)[C@@H](CS)[C@H]2S1(=O)=O.[Na+] [Compound 13] ... 10.5

So what's the measured IC50 for this one? CC1(C)S[C@@H]2C(CO)C(=O)N2[C@H]1C(=O)O (single isomer, unassigned) [Compound 28, reference compound]
96.2

----------
Reported log10 IC50 values follow for various compounds
biological target: TEM-1 (class A) serine β-lactamase (Escherichia coli); test: Inhibition of TEM-1 β-lactamase (nitrocefin hydrolysis); settings: 4 min incubation of inhibitor and enzyme (0.1 to 1 μM), substrate nitrocefin, 480 nm; error ±10%
Sequence (P62593 24-286 limits assumed): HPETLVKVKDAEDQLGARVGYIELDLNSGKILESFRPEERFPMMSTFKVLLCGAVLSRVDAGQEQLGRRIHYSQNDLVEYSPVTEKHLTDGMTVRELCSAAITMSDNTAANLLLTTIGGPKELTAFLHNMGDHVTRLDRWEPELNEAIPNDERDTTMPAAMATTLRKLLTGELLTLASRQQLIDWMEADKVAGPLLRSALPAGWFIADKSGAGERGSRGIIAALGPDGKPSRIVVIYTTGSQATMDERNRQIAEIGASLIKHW
Scale: log10; quantity: IC50; unit before log: µM

CC1(C)[C@H](C(=O)[O-])N2C(=O)[C@@H](CS)[C@H]2S1(=O)=O.[Na+] [Compound 13] ... 0.83
CC1(C)[C@H](C(=O)[O-])N2C(=O)[C@H](CS)[C@H]2S1(=O)=O.[Na+] [Compound 25] ... 1.71

So what's the measured log10 IC50 for this one? CC1(C)S[C@@H]2C(CO)C(=O)N2[C@H]1C(=O)O (single isomer, unassigned) [Compound 28, reference compound]
2.44

So what's the measured log10 IC50 for this one? CC1(C)S[C@@H]2C(CS)C(=O)N2[C@H]1C(=O)[O-].[Na+] (stereo partly drawn) [Compound 9]
2.78

So what's the measured log10 IC50 for this one? CC1(C)S[C@@H]2C(CO)C(=O)N2[C@H]1C(=O)O (single isomer, unassigned) [Compound 16, reference compound]
2.88

So what's the measured log10 IC50 for this one? CC1(C)S[C@@H]2[C@@H](CS)C(=O)N2[C@H]1C(=O)[O-].[Na+] [Compound 21]
2.81

----------
target: L1 metallo-β-lactamase (class B) (Stenotrophomonas maltophilia, UniProt P52700); test: Inhibition of L1 metallo-β-lactamase (nitrocefin hydrolysis); format: biochemical; settings: 4 min incubation of inhibitor and enzyme (0.1 to 1 μM), substrate nitrocefin, 480 nm; error ±10%; read-out: Inhibition IC50, L1 (Class B) (Metallo)
Sequence (P52700 34-290): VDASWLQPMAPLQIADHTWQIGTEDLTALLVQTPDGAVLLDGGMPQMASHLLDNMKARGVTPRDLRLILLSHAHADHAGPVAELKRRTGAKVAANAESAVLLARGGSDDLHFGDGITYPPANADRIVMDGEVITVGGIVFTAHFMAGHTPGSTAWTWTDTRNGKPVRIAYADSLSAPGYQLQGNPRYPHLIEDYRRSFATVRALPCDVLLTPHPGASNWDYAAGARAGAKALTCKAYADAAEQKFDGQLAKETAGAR
reported.property: IC50 (µM)
I only need the number, in µM, no unit after it.

CC1(C)S[C@@H]2C(CS)C(=O)N2[C@H]1C(=O)[O-].[Na+] (stereo partly drawn) ... 72.2
CC1(C)[C@H](C(=O)[O-])N2C(=O)[C@H](CS)[C@H]2S1(=O)=O.[Na+] ... 0.82
CC1(C)[C@H](C(=O)[O-])N2C(=O)[C@@H](CS)[C@H]2S1(=O)=O.[Na+] ... 0.13

So what's the measured IC50 for this one? `CC1(C)S[C@@H]2[C@@H](CS)C(=O)N2[C@H]1C(=O)[O-].[Na+]`
81.4
